Assay: Determination of kinetic solubility (pH 7.4)
Type: physicochemical
Details: phosphate buffer, pH 7.4, aqueous buffer, kinetic from dmso stock, 50 mM phosphate buffer pH 7.4, read-out: Ksol, pH 7.4
measure: solubility kinetic at 2 h (µg/mL)
Quick reminder: number only, in µg/mL, skip the unit.

>>> value("N#CC[C@H]1CN(c2nc(OCC34CCCN3CCC4)nc3c(F)c(-c4cccc5cccc(Cl)c45)ncc23)CCN1C(=O)/C=C/c1nc(C2CC2)no1")
38.5

Which solubility kinetic at 2 h is reported for this compound? N#CC[C@H]1CN(c2nc(OC[C@@]34CCCN3C[C@H](F)C4)nc3c(F)c(-c4cccc5ccc(F)c(Cl)c45)ncc23)CCN1C(=O)/C=C/CN1CCC(F)(F)CC1 3.46
